ASSAY_ENDPOINT: melting point

Examples with their reported melting point follow.
>  <STRUCTURE_STRING>
C=CCNC(=S)Nc1ccc2ncc(Nc3cc(OC)c(OC)c(OC)c3)nc2n1

>  <melting point>
230 to 234 °C

$$$$
>  <STRUCTURE_STRING>
CCNC(=O)Nc1ccc2ncc(-c3cccc(SC)c3)nc2n1

>  <melting point>
221 to 224 °C

$$$$
>  <STRUCTURE_STRING>
O=C(Nc1cnc2ccc(-c3cc(Cl)c(O)c(Cl)c3)nc2n1)NC1CCCC1

>  <melting point>
262 to 264 °C

$$$$
>  <STRUCTURE_STRING>
COc1cc(Nc2cnc3ccc(NC(=S)NCc4ccccc4)nc3n2)cc(OC)c1OC

>  <melting point>
250 to 252 °C

$$$$
>  <STRUCTURE_STRING>
CCNC(=S)Nc1ccc2ncc(Nc3ccc(C)cc3C)nc2n1

>  <melting point>
215 °C

$$$$
>  <STRUCTURE_STRING>
COc1cc(-c2ccc3ncc(NC(=O)Nc4ccncc4)nc3n2)ccc1O

>  <melting point>
234 to 237 °C

$$$$
>  <STRUCTURE_STRING>
COc1cc(-c2ccc3ncc(NC(=O)NC(C)C)nc3n2)ccc1O

>  <melting point>
212 to 214 °C

$$$$
>  <STRUCTURE_STRING>
CCNC(=O)Nc1ccc2ncc(-c3cccc(C#N)c3)nc2n1

>  <melting point>
253 to 257 °C

$$$$

stdin: Which measured melting point value corresponds to COc1cc(-c2ccc3ncc(NC(=O)Nc4ccc([N+](=O)[O-])cc4)nc3n2)ccc1O ?
stdout: 247 to 250 °C

stdin: Looking for the measured melting point of CCNC(=S)Nc1ccc2ncc(Nc3ccc(OC)c(O)c3)nc2n1 , can you help?
stdout: 272 °C

stdin: Could you tell me which melting point is on file for CCNC(=S)Nc1ccc2ncc(Nc3ccc(C)c(OC)c3)nc2n1 ?
stdout: 288 °C

stdin: Can you share its melting point? I mean this molecule: CNC(=S)Nc1ccc2ncc(Nc3cc(OC)c(OC)c(OC)c3)nc2n1
stdout: 258 to 261 °C

stdin: Request the reported melting point associated with CCNC(=O)Nc1ccc2ncc(-c3cc4ccccc4[nH]3)nc2n1
stdout: > 300 °C

stdin: # melting point lookup, item CCNC(=S)Nc1ccc2ncc(Nc3cc(Cl)c(O)c(Cl)c3)nc2n1
stdout: 278 °C

stdin: Need melting point, item CCNC(=S)Nc1ccc2ncc(Nc3cc(Cl)cc(Cl)c3)nc2n1
stdout: 270 °C

---

Test system: Phospho-Akt (Ser 473)
Test: Cellular substrate phosphorylation (Western blotting), PI3K →pAkt
Format: cell-based, human
Conditions: Western blotting, concentrations of 5-50 μM
Text: This method enables a statement of whether the kinase modulator investigated achieves the desired effect in a cellular context too, i.e., in this case, a substrate protein downstream of the target kinase is examined for its phosphorylation status. […] The substrate proteins down-stream of the target kinases are detected simultaneously with an anti-phospho antibody which is specific in each case and a total antibody which recognizes the substrate total protein. […]
ASSAY_ENDPOINT: inhibition of cellular phospho-Akt / PI3K-Akt pathway, in words

>  <STRUCTURE_STRING>
CCNC(=O)Nc1ccc2ncc(-c3ccc(OC)c(O)c3)nc2n1

>  <TARGET_SYSTEM>
Phospho-Akt (Ser 473)

>  <EXPERIMENTAL_RESULT>
inhibit both

$$$$
>  <STRUCTURE_STRING>
CCNC(=O)Nc1ccc2ncc(-c3ccc(OC(C)=O)c(OC)c3)nc2n1

>  <TARGET_SYSTEM>
Phospho-Akt (Ser 473)

>  <EXPERIMENTAL_RESULT>
inhibit both

$$$$
